biological target: α-Glucosidase (from yeast, EC 3.2.1.20) (Saccharomyces cerevisiae, UniProt P53341); construct: purchased Shanghai Yuanye Bio-Technology Co., Ltd. (Shanghai, China); test: biochemical; assay type: biochemical; settings: means ± SD, n = 3; yeast enzyme, p-NPG substrate, 37 °C; read-out: IC50 α-Glucosidase
Sequence (P53341 whole entry): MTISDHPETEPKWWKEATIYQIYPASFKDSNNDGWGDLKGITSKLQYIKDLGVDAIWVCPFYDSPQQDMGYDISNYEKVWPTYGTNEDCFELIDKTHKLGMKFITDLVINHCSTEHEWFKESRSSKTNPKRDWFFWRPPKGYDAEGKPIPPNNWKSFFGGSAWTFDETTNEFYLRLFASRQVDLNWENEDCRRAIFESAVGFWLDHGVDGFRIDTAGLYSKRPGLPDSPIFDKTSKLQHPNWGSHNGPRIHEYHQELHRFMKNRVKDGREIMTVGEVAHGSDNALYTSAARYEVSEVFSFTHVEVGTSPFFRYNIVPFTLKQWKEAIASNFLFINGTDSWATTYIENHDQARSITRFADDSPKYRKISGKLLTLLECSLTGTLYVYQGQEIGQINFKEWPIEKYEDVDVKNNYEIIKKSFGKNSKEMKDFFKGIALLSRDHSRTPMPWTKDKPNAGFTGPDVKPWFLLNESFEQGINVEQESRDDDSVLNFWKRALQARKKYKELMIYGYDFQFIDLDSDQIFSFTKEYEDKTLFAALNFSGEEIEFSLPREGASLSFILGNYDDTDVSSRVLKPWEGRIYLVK
readoutType: pIC50
pIC50 (log units): -log10 of the concentration in mol/L.

Below, each entry is followed by its recorded pIC50 result.
compound	readoutType	measValue
COc1ccc(C2=CC(=O)OC2Cc2ccc(OC3OC(CO)C(O)C(O)C3O)cc2)c(OC2OC(CO)C(O)C(O)C2O)c1 (stereo not drawn) [Compound 1, 4R-pueroside B]	pIC50	4.21
CC1(C)CC(=O)C2(C)CCC3(C)C(=CCC4C5(C)CCC(=O)C(C)(CO)C5CCC43C)C2C1 (stereo not drawn) [Compound 12, melilotigenin B]	pIC50	4.63

Could you now consider this next compound?
compound CC1(C)C=Cc2cc3c(cc2O1)OC1C2(O)C=CC(=O)C=C2OCC31O (stereo not drawn) [Compound 11, hydroxytuberosone] , pIC50 observed: 4.49

----------
target: α-Glucosidase (from yeast, EC 3.2.1.20) (Saccharomyces cerevisiae); construct: purchased Shanghai Yuanye Bio-Technology Co., Ltd. (Shanghai, China); assay: biochemical; format: biochemical; conditions: means ± SD, n = 3; yeast enzyme, p-NPG substrate, 37 °C; read-out: IC50 α-Glucosidase
readoutType: IC50

molecule	measValue
COC1=CC(=O)[C@@]2([C@@H]1O)[C@@H](Cl)C[C@@]13C(OC)=C(OC)C(=O)C[C@@]21CCN3C	66.5 µM
COc1ccc(C2=CC(=O)OC2Cc2ccc(O)cc2)c(OC2OC(CO)C(O)C(O)C2O)c1 (single isomer, unassigned; (-)) [Compound 3, (−)-puerol B-2-O-glucopyranoside]	72.9 µM
COc1ccc(C2=CC(=O)OC2Cc2ccc(OC3OC(CO)C(O)C(O)C3O)cc2)c(OC2OC(CO)C(O)C(O)C2O)c1 (stereo not drawn) [Compound 2, 4S-pueroside B]	> 100 µM
COc1cc2c(cc1O)[C@@H]1Cc3ccc(O)c(OC)c3CN1CC2	58.8 µM

Could you now consider this next molecule?
Item `COc1ccc2c(c[n+](C)c3c4cc5c(cc4ccc23)OCO5)c1OC` ; assay system α-Glucosidase (from yeast, EC 3.2.1.20) (Saccharomyces cerevisiae); IC50 reported as 52.3 µM

----------
biological target: α-amylase (from porcine pancreas) (Sus scrofa, UniProt P00690); construct: purchased Shanghai Yuanye Bio-Technology Co., Ltd. (Shanghai, China); host or cells: porcine pancreas; assay: α-amylase inhibition assay (DNS colorimetric, 540 nm); type: biochemical; conditions: means ± SD, n = 3; porcine pancreas enzyme, DNS method, 37 °C; read-out: IC50 α-Amylase
readoutType: pIC50
pIC50 (log units): -log10 of the concentration in mol/L.

compound	experimentalTarget	readoutType	measValue
CC1(C)C=Cc2cc3c(cc2O1)OC1C2(O)C=CC(=O)C=C2OCC31O (stereo not shown) [Compound 11, hydroxytuberosone]	α-amylase (from porcine pancreas) (Sus scrofa, UniProt P00690)	pIC50	4.41

compound `COc1ccc2c(c[n+](C)c3c4cc5c(cc4ccc23)OCO5)c1OC` , pIC50 observed: 4.15

compound `COC1=CC(=O)[C@@]2([C@@H]1O)[C@@H](Cl)C[C@@]13C(OC)=C(OC)C(=O)C[C@@]21CCN3C` , pIC50 observed: 4.09

compound COc1ccc(C2=CC(=O)OC2Cc2ccc(OC3OC(CO)C(O)C(O)C3O)cc2)c(OC2OC(CO)C(O)C(O)C2O)c1 (stereo not drawn) [Compound 1, 4R-pueroside B] , pIC50 observed: 4.09

----------
molecular target: α-amylase (from porcine pancreas) (Sus scrofa, UniProt P00690); construct: purchased Shanghai Yuanye Bio-Technology Co., Ltd. (Shanghai, China); host or cells: porcine pancreas; experiment: α-amylase inhibition assay (DNS colorimetric, 540 nm); assay type: biochemical; settings: IC50 α-Amylase, means ± SD, n = 3; porcine pancreas enzyme, DNS method, 37 °C
readoutType: IC50 (µM)
Your answer should be a plain number; it is taken to be in µM.

Item `COC1=C[C@@H]2[C@@H]3Cc4ccc(OC)c(O)c4[C@]2(CCN3C)CC1=O` ; assay system α-amylase (from porcine pancreas) (Sus scrofa, UniProt P00690); IC50 reported as 66.7

----------
Biological target: α-amylase (from porcine pancreas) (Sus scrofa)
Construct: purchased Shanghai Yuanye Bio-Technology Co., Ltd. (Shanghai, China); host or cells: porcine pancreas
Sequence (P00690 16-511): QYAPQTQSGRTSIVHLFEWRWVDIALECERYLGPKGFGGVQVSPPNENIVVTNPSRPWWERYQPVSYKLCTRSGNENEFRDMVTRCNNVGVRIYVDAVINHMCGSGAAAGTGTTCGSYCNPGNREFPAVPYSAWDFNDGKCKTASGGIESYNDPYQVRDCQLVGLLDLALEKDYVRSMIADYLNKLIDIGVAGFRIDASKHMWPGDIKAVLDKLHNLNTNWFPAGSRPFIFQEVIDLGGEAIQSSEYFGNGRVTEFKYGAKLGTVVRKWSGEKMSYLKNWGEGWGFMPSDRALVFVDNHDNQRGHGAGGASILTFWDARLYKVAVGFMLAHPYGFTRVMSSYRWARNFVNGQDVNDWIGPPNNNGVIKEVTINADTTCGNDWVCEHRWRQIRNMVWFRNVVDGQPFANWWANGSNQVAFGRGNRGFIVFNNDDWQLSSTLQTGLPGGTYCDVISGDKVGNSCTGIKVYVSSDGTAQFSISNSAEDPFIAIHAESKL
Test: α-amylase inhibition assay (DNS colorimetric, 540 nm)
Type: biochemical
Conditions: means ± SD, n = 3; porcine pancreas enzyme, DNS method, 37 °C; read-out: IC50 α-Amylase
readoutType: pIC50
pIC50 (log units): -log10 of the concentration in mol/L.

compound	readoutType	measValue
CC1(C)CC(=O)C2(C)CCC3(C)C(=CCC4C5(C)CCC(=O)C(C)(CO)C5CCC43C)C2C1 (stereo not drawn)	pIC50	4.51
COc1cc2c(cc1OC)[C@@H](Cc1ccc(Oc3cc(C[C@@H]4c5cc(OC)c(OC)cc5CCN4C)ccc3O)cc1)N(C)CC2	pIC50	4.22
COc1cc2c(cc1O)[C@@H]1Cc3ccc(O)c(OC)c3CN1CC2	pIC50	4.11

compound COc1ccc(C2=CC(=O)OC2Cc2ccc(O)cc2)c(OC2OC(CO)C(O)C(O)C2O)c1 (single isomer, unassigned; (-)) [Compound 3, (−)-puerol B-2-O-glucopyranoside] , pIC50 observed: 4.08

compound `COc1cc2c(cc1O)[C@@H](Cc1ccc(O)c(Oc3ccc(C[C@@H]4c5cc(OC)c(OC)cc5CCN4C)cc3)c1)N(C)CC2` , pIC50 observed: 4.18
